Tested on: IL-17A-induced G-CSF production in human normal keratinocyte (NHK)
ASSAY REMARKS: NHK assay: IL-17A-induced G-CSF production in normal human keratinocytes
Format: cell-based
MEASUREMENT CONDITIONS: Homo sapiens, Keratinocyte, 24 h, IL-17A 5 ng/mL, G-CSF by HTRF, average if tested more than once
pIC50: −log10 of the molar value.
READOUT KIND: pIC50

Examples from the recorded data:
# COMPOUND, pIC50
rows = [
    ("COC[C@H](c1cnn2cc([C@@H](NC(=O)c3nonc3C)[C@H](C)OC(C)(C)C(F)(F)F)nc2c1)N1CC(F)(F)CNC1=O (relative stereo)", "< 7.00"),
    ("[2H]C1([2H])NC(=O)N([C@H](COC)c2cnn3cc([C@H](CCC(C)(C)C(F)(F)F)NC(=O)c4nonc4OC)nc3c2)C([2H])([2H])C1(F)F", "> 7.30"),
    ("[2H]C1([2H])NC(=O)N([C@H](COC2CC2)c2cnn3cc([C@@H](NC(=O)c4nonc4C)C4CCC(F)(F)CC4)nc3c2)C([2H])([2H])C1(F)F (single isomer, unassigned)", "> 7.30"),
    ("Cc1nonc1C(=O)N[C@@H](CCC(C)(C)C(F)(F)F)c1cn2ncc(CN3C[C@H]4[C@@H](CNC3=O)C4(F)F)cc2n1 (relative stereo)", "> 7.30"),
    ("C[C@H](c1cnn2cc([C@H](COC(C)(C)C(F)(F)F)NC(=O)c3nonc3C3CC3)nc2c1)N1CC(F)(F)CNC1=O", "> 7.30"),
]

Q: Give pIC50 (IL-17A-induced G-CSF production in human normal keratinocyte (NHK)) of the following compound: "[2H]C1([2H])NC(=O)N([C@H](COC)c2cnn3cc([C@H](CCC(C)(C)C(F)(F)F)NC(=O)c4nonc4C)nc3c2)C([2H])([2H])C1(F)F"
Result: > 7.30

Q: Find the measured pIC50: item CC1(F)CNC(=O)N(Cc2cnn3cc([C@@H](NC(=O)c4nonc4C4CC4)C4CCC(F)(F)CC4)nc3c2)C1 (single isomer, unassigned) , target or system IL-17A-induced G-CSF production in human normal keratinocyte (NHK).
Result: < 7.00

Q: Value wanted: pIC50 (IL-17A-induced G-CSF production in human normal keratinocyte (NHK)) of entry "O=C(N[C@H](c1cn2ncc(CN3CC(F)(F)CNC3=O)cc2n1)C1CCC(F)(F)CC1)c1nonc1OCC(F)F"
Result: > 7.30

Q: Could you share what pIC50 was measured for O=C(N[C@H](c1cn2ncc(CN3CC(C(F)(F)F)CNC3=O)cc2n1)C1CCC(F)(F)CC1)c1nonc1C1CC1 (single isomer, unassigned) , tested on IL-17A-induced G-CSF production in human normal keratinocyte (NHK)?
Result: < 7.00

Q: Quick check: pIC50 on IL-17A-induced G-CSF production in human normal keratinocyte (NHK), item "COC[C@H](c1cnn2cc([C@H](COC(C)(C)C(F)(F)F)NC(=O)c3ccnn3C(C)C)nc2c1)N1CC(F)(F)CNC1=O" ?
Result: > 7.30

Q: What measured pIC50 is associated with "COC[C@H](c1cnn2cc([C@H](CCC(C)(C)C(F)(F)F)NC(=O)c3nonc3C(F)F)nc2c1)N1CC(F)(F)CNC1=O" on IL-17A-induced G-CSF production in human normal keratinocyte (NHK)?
Result: > 7.30

Q: Quick check: pIC50 on IL-17A-induced G-CSF production in human normal keratinocyte (NHK), item CC(C)(CC[C@H](NC(=O)c1nonc1C1CC1)c1cn2ncc(CN3C[C@@H]4[C@H](CNC3=O)C4(F)F)cc2n1)C(F)(F)F (relative stereo) ?
Result: < 7.00
